Biological target: T1, recombinant human GREM1 (hGREM1-His; C-terminal 10His tagged, R&D, #5190-GR) (human, UniProt O60565 25-184)
T1 construct: range 25-184; also called recombinant human GREM1 with a C-terminal decahistidine tag
T1 sequence: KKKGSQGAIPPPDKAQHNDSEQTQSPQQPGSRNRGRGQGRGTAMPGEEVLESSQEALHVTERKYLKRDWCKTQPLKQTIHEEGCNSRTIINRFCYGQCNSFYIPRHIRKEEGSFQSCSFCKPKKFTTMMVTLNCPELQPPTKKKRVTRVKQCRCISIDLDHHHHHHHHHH
Experiment: BLI Octet, mAb captured, 100 nM GREM1;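 note: octet Red96 biolayer interferometry at 25 °C in pH 7.4 HEPES saline buffer, antibodies held on anti-human IgG Fc capture biosensors, then exposed to GREM1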
Below, each entry is listed with its recorded Binding Signal with 30 sec Association.
Give just the number in nm; leave the unit off.

- binder: "H4H6246P (antibody, human IgG4, V domains shown, H4H prefix = human IgG4 Fc) VH: QVQLVESGGGVVQPGRSLRLSCAASGFTFSSYGMHWVRQAPGKGLEWVAIIWYDGSNRYYADSVKGRFTISRDNSRNTLYLQMNSLRAEDTAVYYCARDEYGDYDYPFDYWGQGTLVTVSS VL: DIQMTQSPSSLSASVGDRVTITCRASQGIRNDLGWFQQKPGKAPKRLIYAASSLQSGVPSRFSGSGSGTEFTLTISSLQPEDFATYYCLQHNTYPPFTFGPGTKVDIK"
  Binding Signal with 30 sec Association, nm: 0.19

Indicate its recorded Binding Signal with 30 sec Association; the binder in question is H4H6248P (antibody, human IgG4, V domains shown, H4H prefix = human IgG4 Fc) VH: QVQLVESGGGVVQPGRSLRLSCAASGFTFSNYGMHWVRQVPGKGLEWVAVIWYDGSNKYYADSVKGRFTISRDNSKNTLYLQMNSVRAEDTAVYYCARDDYGDSPGFDYWGQGTLVTVSS VL: EIVMTQSPATLSVSPGERATLSCRASQSVSSSLAWYQQKPGQAPRLLIYDASTRATGIPARFSGSGSGTEFTLTISGLQSEDFAVYYCQQYNNWPPWTFGQGTKVEIK 0.21
